- MEASUREMENT_TARGET: Ubiquitin carboxyl-terminal hydrolase 30 (Homo sapiens) (UniProt Q70CQ3)
- Sequence (Q70CQ3 whole entry, looked up): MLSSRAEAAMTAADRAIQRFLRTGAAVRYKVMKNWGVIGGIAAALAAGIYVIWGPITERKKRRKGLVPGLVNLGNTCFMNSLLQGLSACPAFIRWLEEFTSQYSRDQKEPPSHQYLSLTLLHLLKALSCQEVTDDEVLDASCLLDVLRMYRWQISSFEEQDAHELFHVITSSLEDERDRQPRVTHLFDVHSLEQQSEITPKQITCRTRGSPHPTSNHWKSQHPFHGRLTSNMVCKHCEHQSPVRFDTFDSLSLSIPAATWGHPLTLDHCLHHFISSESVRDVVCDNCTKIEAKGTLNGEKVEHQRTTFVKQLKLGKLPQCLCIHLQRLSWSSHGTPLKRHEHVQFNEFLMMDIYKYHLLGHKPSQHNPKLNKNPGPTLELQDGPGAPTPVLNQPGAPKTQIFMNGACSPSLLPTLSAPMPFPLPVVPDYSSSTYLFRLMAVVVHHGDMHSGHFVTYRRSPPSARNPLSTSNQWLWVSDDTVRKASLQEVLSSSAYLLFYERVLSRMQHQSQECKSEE
- METHOD_SUMMARY: inhibitors of ubiquitin-specific protease 30 deubiquitylating enzyme, concentration dependence, in vitro biochemical, validation of primary hits (AID 1645865)
- CONDITION_NOTES: purified USP30, Ub-rhodamine cleavage, fluorescence, 2 h
The source made the active and inactive calls.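 The calls were made as follows: active = maximal inhibition of the USP30 enzyme reaching 30% or more across the dose series; inactive = the rest.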
Write down one outcome, taken from 1 (active), 0 (inactive)

Q. Hey, what did the test say about CN(C)C1CCN(C(=O)c2cc(-c3ccn(-c4ccccc4)n3)n3ccccc23)CC1 ?
A. 0

Q. Write down the call the test reported for this molecule. Item: C/C1=C/CC(O)/C=C/C(C)C(O)C(C)/C=C(\C)C(=O)c2c(O)c(C)cc3c2C(=O)C(Cl)=C(NC(=O)\C=C/C=C/C=C\C(C)C(O)CC1=O)C3=O (configuration not stated)
A. 0

Q. What was the test verdict on O=C(c1ccco1)N1CCC2(CC1)CC1(CO2)Nc2ccccc2-n2cccc21 (configuration not stated) ?
A. 0

Q. Just curious, what result did Cn1c(=O)c2c(nc3n(-c4ccccc4F)c(-c4ccccc4)cn23)n(C)c1=O get here?
A. 0

Q. Write down the call the test reported for this molecule. Item: COCCn1ccc2nc(C)c(C(=O)Nc3ccc4c(c3)OCCO4)cc2c1=O
A. 1

Q. // outcome(item) with item = COCCCn1c(C(=O)Nc2ccccc2OC)cc2c(=O)n3ccccc3nc21
A. 0

Q. For this molecule, state the assay outcome: COc1ccc(-c2cc(C(C)=O)c(C)n2CCC(=O)Nc2ccc(OC)cc2OC)cc1
A. 1

Q. Please indicate how the test categorized C=C(NC(=O)C(=C)NC(=O)c1csc(C2=N[C@@H]3c4csc(n4)[C@H]4NC(=O)c5csc(n5)[C@H]([C@](C)(O)[C@@H](C)O)NC(=O)C5CSC(=N5)/C(=C/C)NC(=O)C([C@@H](C)O)NC(=O)c5csc(n5)[C@]3(CC2)NC(=O)[C@H](C)NC(=O)C(=C)NC(=O)[C@H](C)NC(=O)C([C@@H](C)CC)NC2C=Cc3c(C(C)O)cc(nc3[C@H]2O)C(=O)OC4C)n1)C(N)=O (some centres not stated) .
A. 0

Q. Which outcome did this test record for the molecule COc1ccc(OC)c2c(C)cc(N3CCN(S(=O)(=O)c4ccc5c(c4)CCCN5S(C)(=O)=O)CC3)nc12 ?
A. 1

Q. Give the logged outcome of this assay for the following molecule: O=C1COc2ccccc2N1Cc1noc(-c2ccccc2)n1
A. 0

Q. Test call, this molecule: Cc1ccc(-c2ncc(C(=O)NCc3cccc(C)c3)c(-c3ccncc3)n2)cc1
A. 0

Q. Outcome? CC(C)(C)N=C1Nc2ncccc2NC12CCCN(C(=O)c1ccccc1)C2 (configuration not stated)
A. 0

Q. Outcome? COc1ccc(N(CC(=O)Nc2cccc(F)c2)S(=O)(=O)c2ccc(OC)c(OC)c2)cc1
A. 1

Q. Returns: the outcome recorded for O=C(NCc1ccco1)c1ccc2c(c1)N(Cc1cccc(F)c1)C(=O)c1ccccc1S2 in this assay.
A. 0

Q. What outcome does the record of this test show for COc1ccc(NC(=O)Cn2cc(C(=O)c3ccc(F)cc3)c(=O)c3cc(C)ccc32)cc1 ?
A. 1

Q. # fetch the recorded call for O=C(CSc1nc2cc(C(F)(F)F)ccc2s1)NCC(=O)c1ccccc1 here
A. 1

Q. // return assay outcome for O=C(NCc1ccc(CN2CCCC2)cc1)c1cc2ccccc2[nH]c1=O
A. 0

====

- MEASUREMENT_TARGET: UniProt Q70CQ3
- METHOD_SUMMARY: inhibitors of ubiquitin-specific protease 30 deubiquitylating enzyme, concentration dependence, in vitro biochemical, validation of primary hits (AID 1645865)
- CONDITION_NOTES: purified USP30, Ub-rhodamine cleavage, fluorescence, 2 h
Activity calls are given as the source filed them.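 How the source made its calls: active means maximal inhibition of the USP30 enzyme reaching 30% or more across the dose series; inactive means the rest.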
One label from this list, please: Y for active, N for inactive

Q. Check the results log: what was the call for O=C1/C(=C/c2cn(-c3ccccc3)nc2-c2ccc3c(c2)OCCO3)Cc2ccccc21 ?
A. N

Q. Tell me the recorded outcome of this test for O=c1c2ccccc2ncn1C1CCN(S(=O)(=O)c2ccccc2F)CC1 .
A. Y

Q. For CCOC(=O)c1ccc(NC(=O)Cn2c(=O)n(CC(=O)NCc3ccco3)c(=O)c3ccccc32)cc1 , which call appears in the assay record?
A. Y

Q. I'd appreciate the recorded outcome for COc1ccc(C)cc1NC(=O)Cc1csc(NC(=O)c2ccc(=O)[nH]c2)n1 from this test.
A. N

Q. Call for entry COc1ccc(CC(=O)NCc2ccc3[nH]c(C)cc3c2)cc1 :
A. N

Q. Which outcome did this test record for the molecule COc1ccc(-c2nc(Cn3nnc(C(=O)Nc4ccc(C)cc4C)c3N)c(C)o2)cc1 ?
A. N

Q. Which outcome did this test record for the molecule Cc1nc(-c2noc(-c3ccncc3)n2)cn1CC(=O)N1CCN(c2ccc(F)cc2)CC1 ?
A. Y

Q. How did this test come out for O=C(/C=C/c1ccc(F)cc1)Nc1ccc2c(c1)OCCO2 ?
A. N

Q. Which outcome was entered for the molecule COc1cccc(-c2nc(C(N)=O)c3[nH]c(=O)n(-c4cccc(Cl)c4)c3n2)c1OC in this test?
A. N

Q. Which result was noted for this molecule in the test: CCCCN1CC(C(=O)Nc2ccc(C(=O)Nc3ccc(F)c(Cl)c3)cc2)CC1=O (stereo unspecified)
A. Y

Q. Outcome? Cc1cc(C)c2nc3c(cc2c1)CN(Cc1ccco1)C(=O)O3
A. N

Q. Short answer needed: outcome of this test for CC(C)CCn1c(=O)c2ccccc2n2c(CCC(=O)NC3CCCCCC3)nnc12 ?
A. N

Q. Tell me the recorded outcome of this test for COc1ccc(CC(NC(C)=O)C(=O)NC2CCN(c3c(Cc4ccccc4)c(C)nc4ncnn34)CC2)cc1OC (stereo unspecified) .
A. N

Q. What classification did CCCc1nc2sc3c(NCCc4ccc(OC)c(OC)c4)ncnc3c2c2c1CCC2 end up with in this test?
A. N

Q. Please indicate how the test categorized Cc1cn[nH]c1C1COCCN1C(=O)c1ccc2ncccc2c1 (stereo unspecified) .
A. N

Q. For COc1ccc(NC(=O)c2sc(N3CCOCC3)nc2-c2ccccc2)c(OC)c1 , what call appears in the results of this test?
A. Y

Q. // return assay outcome for Cc1nn(-c2ccc(Cl)cc2)c2[nH]c(=O)c(CNCC3CCCO3)cc12 (stereo unspecified)
A. N

Q. Look up the recorded call for O=c1c(S(=O)(=O)c2cc(F)cc(F)c2)c[nH]c2cc(Cl)ccc12 in this test.
A. Y

Q. Which outcome was entered for the molecule Cc1cc(C(=O)Nc2cc(C)n(Cc3ccc(Cl)cc3)n2)no1 in this test?
A. N

Q. I would be grateful if you could indicate the recorded call for O=C(COC(=O)c1cc2c(s1)CCC2)c1ccc2[nH]c(=O)[nH]c2c1 .
A. N

Q. GET /call?item= CC1CCN(c2cc(-n3cnc(C(=O)N4CCCCC4)c3)ncn2)CC1 returns the recorded outcome of this test.
A. N

====

- MEASUREMENT_TARGET: Ubiquitin carboxyl-terminal hydrolase 30 (Homo sapiens) (UniProt Q70CQ3)
- METHOD_SUMMARY: inhibitors of ubiquitin-specific protease 30 deubiquitylating enzyme, concentration dependence, in vitro biochemical, validation of primary hits (AID 1645865)
- CONDITION_NOTES: purified USP30, Ub-rhodamine cleavage, fluorescence, 2 h
The source made the active and inactive calls.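 How the source made its calls: active means maximal inhibition of the USP30 enzyme reaching 30% or more across the dose series; inactive means the rest.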
Outcomes you can answer with include only these: t (active), f (inactive)

Q. Write down the call the test reported for this compound. Item: CCn1c(CN2CCCC(c3nc(-c4cccnc4)n[nH]3)C2)nc2ccccc21 (stereo not given)
A. f

Q. Which outcome was assigned to Cc1sc2ncnc(OCc3ccc(F)cc3Cl)c2c1C in this test?
A. f

Q. Assay outcome for COc1ccc(C(=O)Nc2sc3c(c2C(=O)NCc2cccnc2)CCCC3)cc1 : what was it?
A. t

Q. Hey, what did the test say about O=C(CCc1nnc2n(Cc3ccccc3Cl)c(=O)c3ccccc3n12)NCc1ccccn1 ?
A. t

Q. Hi team, can someone confirm the assay call for COc1ccc(NC(=O)C2CCCN(S(=O)(=O)N3CCCCCC3)C2)cc1 (stereo not given) ?
A. t

Q. Recorded test outcome, item COc1ccccc1CNC(=O)CCCn1c(=O)c2ccccc2n(CC(=O)N2CCN(c3ccccc3)CC2)c1=O
A. t

Q. Please indicate how the test categorized Cc1cccc(-c2noc(CCn3c(=O)[nH]c4ccccc4c3=O)n2)c1 .
A. t

Q. Returns: the outcome recorded for COc1cccc2c1C(=O)c1ccc3c(c1C2=O)C(=O)CC(C)(O)C3 (stereo not given) in this assay.
A. f

Q. Please let me know the test result on file for Cc1cccc(COc2ccc(C3SCC(=O)Nc4n[nH]c(C)c43)cc2)c1 (stereo not given) .
A. t

Q. Recorded test call requested for CCOc1ccc(-c2nc(C#N)c(N3CCN(C(=O)c4ccccc4C)CC3)o2)cc1
A. t

Q. Hi, sorry to bother you, what did the test record for Cc1cc(Cl)ccc1Nc1nc(Nc2cccc(F)c2)nc2nccnc12 ?
A. f

Q. How did this test come out for Cc1ccc(-n2nnc(C(=O)NC3CCCCC3)c2N)cc1 ?
A. t

Q. Give the logged outcome of this assay for the following compound: Cc1cccc(NC(=O)c2ccn(COc3ccc(F)cc3F)n2)c1C
A. f

Q. Lab log entry: Nc1c(-c2ccc(Cl)cc2)cnc2cc(-c3ccc(Cl)c(Cl)c3)nn12 — outcome as called in the assay?
A. t

Q. Kindly provide the recorded test outcome for the following compound: COc1ccc(COc2ccc3c(C)c(CC(=O)N4CC[C@@]5(O)CCCC[C@H]5C4)c(=O)oc3c2)cc1
A. t

Q. For Oc1cc(OCc2cccc(C(F)(F)F)c2)ccc1-c1ccn[nH]1 , what call appears in the results of this test?
A. t

Q. Please state the recorded outcome for this compound: Cc1ccccc1-c1nnc(-c2ccc(C(=O)NCc3ccccc3F)cc2)o1
A. t

Q. Please state the recorded outcome for this compound: Cc1cc(O)c(Oc2cc(C)cc(O)c2O)c(O)c1
A. t

Q. Can you look up the reported call for COc1cccc(C(=O)Oc2ccc3c(=O)c(-c4ccc(OC)c(OC)c4)coc3c2)c1 for me?
A. t

Q. Test call, this compound: COc1ccc(Cn2cnc3c([nH]c4ccc(Br)cc43)c2=O)cc1
A. t

Q. What did the test return for CCCNC(=O)c1ccn(-c2ccc3ccc(-c4cnn(C)c4)cn23)n1 ?
A. f

Q. Call for entry CNC(=O)CC1NC(=O)c2csc(n2)-c2ccc(-c3nc(C4=NC(C(=O)N5CCCC5C(N)=O)CO4)cs3)nc2-c2csc(n2)-c2csc(n2)C(C(O)c2ccccc2)NC(=O)CNC(=O)c2nc(sc2COC)C(C(C)C)NC(=O)c2nc1sc2C (stereo not given) :
A. f

Q. Per the assay record, what outcome was assigned to NC(=O)c1ccc(NC(=O)Cc2cc(-c3ccc(Cl)cc3)on2)cc1 ?
A. f

Q. Outcome logged for O=C(Cc1noc2ccccc12)N1CCN(c2ccc([N+](=O)[O-])cc2)CC1 in this assay:
A. f

Q. For CNC(=O)c1cc2nc(N(C)C)n(-c3ccccc3)c2s1 , what call appears in the results of this test?
A. f

Q. What did this assay record as the result for c1ccc(-n2nnc(-c3noc(-c4cccnc4)n3)c2-c2ccncc2)cc1 ?
A. t

Q. Status in this test for Cc1ccccc1Cn1ccc(NC(=O)c2noc(C)c2[N+](=O)[O-])n1 ?
A. f

Q. Assay result, entry COc1ccc(OCC(=O)Nc2ccc(C)c(OCc3cc(=O)n4ccccc4n3)c2)cc1 — outcome?
A. t

Q. Could you kindly confirm the outcome this assay logged for CC(=O)c1ccc(NC(=O)CSc2nc(-c3ccccc3)nc3c2COC(C)(C)C3)cc1 ?
A. t

Q. Test call for this compound, please: Cc1nc(N2CCCC2)ncc1C(=O)Nc1ccc(F)c(F)c1
A. t

Q. Check the results log: what was the call for Cc1ccc(C(=O)Nc2ccc3nccnc3c2)cc1 ?
A. t

Q. Name the outcome recorded for COc1ccc(CNC(=O)CCc2nc3sc4c(c3c(=O)[nH]2)CCCCC4)cc1 in the assay.
A. f

Q. Any idea what this test logged for O=C(CC(C(=O)Nc1ccc2c(c1)OCO2)C(=O)c1ccccc1)Nc1ccc(Cl)cc1F (stereo not given) ?
A. t

Q. Returns: the outcome recorded for COc1ccc(-c2nc(SCC(=O)Nc3ccc(Cl)cc3F)n[nH]2)cc1 in this assay.
A. f

Q. Which outcome was entered for the compound COc1ccc(CCNC(=O)c2noc3c2CCc2sccc2-3)cc1OC in this test?
A. t

Q. Identify the outcome logged in this assay for the compound shown: CCOc1ccccc1NC(=O)Cn1c(=O)n(CCCC(=O)NCc2ccc(C)cc2)c(=O)c2sccc21
A. t

Q. // outcome(item) with item = CCc1cc2c(=O)[nH]c(Cc3ccc(OC)cc3)nc2s1
A. t

Q. How was COC(=O)[C@]1(O)O[C@@]2(C(=O)OC)c3c(oc4cc(C)cc(O)c4c3=O)[C@H]3c4c(oc5cc(C)cc(O)c5c4=O)C[C@H]1[C@H]32 classified in this test?
A. f

Q. Please state the recorded outcome for this compound: O=C(COc1ccc(Cl)cc1)N1CCc2cc3ccccc3nc21
A. t

Q. Hi, do you know how COc1ccc(NC(=O)COc2ccc3ccc(=O)oc3c2)cc1 came out in this test?
A. t
